Give measured IC50 for each item. Keep answers brief.
Target: GST-tagged KRAS G12D (2-169) (Homo sapiens, UniProt P01116, G12D)
Construct: GST-tagged KRAS^G12D (2-169, Reaction Biology, MSC-11-539); MSC-11-502 (SOS1cat)
Sequence (P01116 2-169 isoform P01116-2 G12D): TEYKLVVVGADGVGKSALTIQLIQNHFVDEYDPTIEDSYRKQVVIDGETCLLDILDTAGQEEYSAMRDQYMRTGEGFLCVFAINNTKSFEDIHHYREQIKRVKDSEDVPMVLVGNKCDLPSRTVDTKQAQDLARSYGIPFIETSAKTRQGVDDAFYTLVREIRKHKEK
Experiment: Nucleotide exchange assay (NEA), HTRF of SOS-mediated GTP-DY-647P1 binding
Details: 5 nM GST-KRAS G12D, 20 nM SOScat, 150 nM GTP; compound 1 h at RT

Exercise: Supply measured IC50 of CN(C)C(=O)c1cc2n(n1)CCCN(c1nc(OC[C@@]34CCCN3C[C@H](F)C4)nc3c1COC1(CCc4ccc(O)cc41)C3)C2 (stereo partly shown) in your reply.
Solution: 10 to 100 nM

Exercise: Supply measured IC50 of N#CCC1CCCN(c2nc(OC[C@@]34CCCN3C[C@H](F)C4)nc3c2COC2(CCc4c(Cl)cccc42)C3)CC1 (stereo partly shown) in your reply.
Solution: 1000 to 20000 nM

Exercise: Supply measured IC50 of CCN1Cc2c(nc(OC[C@@]34CCCN3C[C@H](F)C4)nc2N2CCCn3nc(C(=O)N(C)C)c(Cl)c3C2)C[C@]12CCc1cccc(F)c12 in your reply.
Solution: 10 to 100 nM

Exercise: Supply measured IC50 of O=C1CCCN(c2nc(OCC34CCCN3CC(F)C4)nc3c2COC2(CCc4c(Cl)cccc42)C3)CC1 (mixture of isomers) in your reply.
Solution: 1000 to 20000 nM

Exercise: Supply measured IC50 of CN(C)C(=O)c1cc2n(n1)CCCN(c1nc(OC[C@@]34CCCN3C[C@H](F)C4)nc3c1CN(C)[C@@]1(CCCc4ccccc41)C3)C2 in your reply.
Solution: < 10 nM

Exercise: Supply measured IC50 of O=C1NC(=O)C2(CCCN(c3nc(OC[C@@]45CCCN4C[C@H](F)C5)nc4c3COC3(CCc5c(Cl)cccc53)C4)C2)N1 (single isomer, unassigned) [Compound 24A] in your reply.
Solution: 10 to 100 nM

Exercise: Supply measured IC50 of C#Cc1c(C(=O)N(C)C)nn2c1CN(c1nc(OC[C@@]34CCCN3C[C@H](F)C4)nc3c1CN(C)[C@@]1(CCCc4ccccc41)C3)CCC2 in your reply.
Solution: < 10 nM

Exercise: Supply measured IC50 of CN(C)C(=O)c1nn2c(c1Cl)CN(c1nc(OC[C@@]34CCCN3C[C@H](F)C4)nc3c1CN(C)[C@@]1(CCCc4ccccc41)C3)CCC2 in your reply.
Solution: < 10 nM

Exercise: Supply measured IC50 of C[C@@]1(NC#N)CCCN(c2nc(OC[C@@]34CCCN3C[C@H](F)C4)nc3c2COC2(CCc4c(Cl)cccc42)C3)C1 (stereo partly shown) [Compound 46B] in your reply.
Solution: 1000 to 20000 nM

Exercise: Supply measured IC50 of CN1Cc2c(nc(OC[C@@]34CCCN3C[C@H](F)C4)nc2N2CCCn3nc(-c4ccccn4)c(Cl)c3C2)C[C@]12CCCc1ccccc12 in your reply.
Solution: < 10 nM

Exercise: Supply measured IC50 of OC1CCCN(c2nc(OC[C@@]34CCCN3C[C@H](F)C4)nc3c2COC2(CCCc4ccc(F)cc42)C3)CC1 (stereo partly shown) in your reply.
Solution: 1000 to 20000 nM

Exercise: Supply measured IC50 of CN1Cc2c(nc(OC[C@@]34CCCN3C[C@H](F)C4)nc2N2CCCn3nc(-c4ccccn4)cc3C2)C[C@]12CCCc1ccccc12 in your reply.
Solution: 10 to 100 nM

Exercise: Supply measured IC50 of N#Cc1c(N)sc2c1C1(CCC2)Cc2nc(OC[C@@]34CCCN3C[C@H](F)C4)nc(N3CCCCCC3)c2CO1 (mixture of isomers) in your reply.
Solution: 1000 to 20000 nM

Exercise: Supply measured IC50 of CN1Cc2c(nc(OC[C@@]34CCCN3C[C@H](F)C4)nc2N2CCC[C@]3(C2)NC(=O)NC3=O)C[C@]12CCc1cccc(Cl)c12 in your reply.
Solution: 10 to 100 nM

Exercise: Supply measured IC50 of CN1CCN(C(=O)c2nn3c(c2Cl)CN(c2nc(OC[C@@]45CCCN4C[C@H](F)C5)nc4c2CO[C@@]2(CCc5c(Cl)cccc52)C4)CCC3)CC1 in your reply.
Solution: < 10 nM

Exercise: Supply measured IC50 of CN1Cc2c(nc(OC[C@@]34CCCN3C[C@H](F)C4)nc2N2CCn3cncc3C2)C[C@]12CCCc1ccccc12 in your reply.
Solution: 1000 to 20000 nM

Exercise: Supply measured IC50 of F[C@H]1CN2CCC[C@@]2(COc2nc3c(c(N4CCCCCC4)n2)COC2(CCc4c(Cl)cccc42)C3)C1 (stereo partly shown) in your reply.
Solution: 1000 to 20000 nM

Exercise: Supply measured IC50 of O[C@@H]1CCN(c2nc(OC[C@@]34CCCN3C[C@H](F)C4)nc3c2COC2(CCc4c(Cl)cccc42)C3)CC[C@@H]1O (stereo partly shown) in your reply.
Solution: 1000 to 20000 nM

Exercise: Supply measured IC50 of CN1Cc2c(nc(OC[C@@]34CCCN3C[C@H](F)C4)nc2N2CCCCCC2)C[C@]12CCc1c(Cl)cccc12 [Compound 28A] in your reply.
Solution: 1000 to 20000 nM

Exercise: Supply measured IC50 of C[C@@]1(O)CCCN(c2nc(OC[C@@]34CCCN3C[C@H](F)C4)nc3c2COC2(CCc4c(Cl)cccc42)C3)C1 (single isomer, unassigned) [Compound 23B] in your reply.
Solution: 1000 to 20000 nM

Exercise: Supply measured IC50 of O=C1NC(=O)[C@@H]2CN(c3nc(OC[C@@]45CCCN4C[C@H](F)C5)nc4c3CO[C@@]3(CCc5c(Cl)cccc53)C4)C[C@H]12 in your reply.
Solution: 100 to 1000 nM

Exercise: Supply measured IC50 of CN1Cc2c(nc(OC[C@@]34CCCN3C[C@H](F)C4)nc2N2CCCn3nc(CC#N)c(Cl)c3C2)C[C@]12CCCc1ccccc12 in your reply.
Solution: < 10 nM

Exercise: Supply measured IC50 of CN(C)C(=O)c1nn2c(c1C#N)CN(c1nc(OC[C@@]34CCCN3C[C@H](F)C4)nc3c1CN(C)[C@@]1(CCCc4ccccc41)C3)CCC2 in your reply.
Solution: < 10 nM

Exercise: Supply measured IC50 of N#CNC1CCCN(c2nc(OC[C@@]34CCCN3C[C@H](F)C4)nc3c2COC2(CCc4c(Cl)cccc42)C3)C1 (stereo partly shown) in your reply.
Solution: 100 to 1000 nM

Exercise: Supply measured IC50 of OC1CCCN(c2nc(OC[C@@]34CCCN3C[C@H](F)C4)nc3c2COC2(CCc4c(Cl)cccc42)C3)CC1 (mixture of isomers) in your reply.
Solution: 1000 to 20000 nM
